Listed next: entries and their corresponding AUC(0-t).
# assay summary: Pharmacokinetics after intravenous and oral administration in rats
# Type: in vivo
# condition context: rat, plasma, iv dosing, dose 1 mg/kg
property label: AUC(0-t) (ng·h/mL)

Cn1cc(Nc2ncc(Cl)c(N[C@@H]3COC4C3OC[C@@H]4NS(=O)(=O)CC3CCCC3)n2)cn1 (stereo partly drawn) ... 680
CC(CF)CS(=O)(=O)N[C@H]1COC2C1OC[C@H]2Nc1nc(Nc2cnn(C)c2)ncc1Cl (stereo partly drawn) ... 491
Cn1cc(Nc2ncc(Cl)c(N[C@@H]3COC4C3OC[C@@H]4NS(=O)(=O)CC(F)(F)F)n2)cn1 (stereo partly drawn) ... 581

The reported numbers originate from patent US20170081338A1.
